- SYSTEM: MC1 receptor (Homo sapiens, UniProt Q01726, R163Q/S90T)
- Construct: expressed in transfected cells
- Sequence (Q01726 1-317 S90T/R163Q): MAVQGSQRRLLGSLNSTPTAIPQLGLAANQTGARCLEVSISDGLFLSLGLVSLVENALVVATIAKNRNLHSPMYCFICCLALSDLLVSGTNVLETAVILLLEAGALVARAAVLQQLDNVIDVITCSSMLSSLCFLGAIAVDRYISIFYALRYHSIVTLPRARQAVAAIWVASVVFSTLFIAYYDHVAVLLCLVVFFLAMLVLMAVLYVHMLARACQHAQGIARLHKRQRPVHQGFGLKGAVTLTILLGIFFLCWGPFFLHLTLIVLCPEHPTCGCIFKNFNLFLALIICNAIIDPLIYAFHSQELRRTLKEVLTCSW
- PROTOCOL DETAILS: cAMP generation in L-cells transfected with the MC1 receptor
- Format: cell-based
- CONDITION LABEL: read-out: ED50, cAMP generation
pEC50: −log10 of the molar value. No end group written: not given here.
QUANTITY KIND: pEC50

Lab note: SYSMEHFRWGKPVGKKRRPVKVYPNGAEDESAEAFPLEF [ACTH, ACTH(1-39)] gave pEC50 of ~9.00
